Please go through the items and note down their IC50 at 5 min.
- study.target: CYP3A4 (Homo sapiens, UniProt P08684)
- Sequence (P08684 2-503): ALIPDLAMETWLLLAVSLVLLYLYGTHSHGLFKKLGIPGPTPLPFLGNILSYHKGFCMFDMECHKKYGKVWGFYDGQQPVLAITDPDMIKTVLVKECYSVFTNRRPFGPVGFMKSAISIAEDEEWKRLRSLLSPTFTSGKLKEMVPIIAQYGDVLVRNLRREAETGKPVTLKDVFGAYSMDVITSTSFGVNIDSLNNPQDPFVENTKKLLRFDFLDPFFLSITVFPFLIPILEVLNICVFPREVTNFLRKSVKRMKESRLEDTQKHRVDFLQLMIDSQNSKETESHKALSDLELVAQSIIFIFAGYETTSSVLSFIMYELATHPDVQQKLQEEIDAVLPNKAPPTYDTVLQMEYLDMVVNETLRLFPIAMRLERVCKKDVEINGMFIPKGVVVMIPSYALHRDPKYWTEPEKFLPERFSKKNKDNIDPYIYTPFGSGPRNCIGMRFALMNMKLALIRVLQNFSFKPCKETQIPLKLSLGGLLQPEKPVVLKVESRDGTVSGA
- protocol.details: CYP3A inhibition assay, midazolam 1'-hydroxylase activity in pooled human hepatic microsomal fraction
- Assay type: biochemical
- protocol.conditions: pooled human liver microsomes, pH 7.4, probe midazolam (1'-hydroxylation), 0.25 mg/mL microsomal protein
Supply the numeric figure in µM, leaving out any unit text.

# input Which measured IC50 at 5 min belongs to "CN(Cc1ccc(F)cc1)C(=O)N[C@@H](CCN1CCOCC1)C(=O)N[C@H](CC[C@H](Cc1ccccc1)NC(=O)OCc1cncs1)Cc1ccccc1" , tested on CYP3A4 (Homo sapiens, UniProt P08684)?
# output 0.11

# input Could you share what IC50 at 5 min was measured for "CC(C)N(C)C(=O)N[C@@H](CCN1CCOCC1)C(=O)N[C@H](CC[C@H](Cc1ccccc1)NC(=O)OCc1cncs1)Cc1ccccc1" , tested on CYP3A4 (Homo sapiens, UniProt P08684)?
# output 0.14

# input For the record "CC(=O)NCC[C@H](NC(=O)N1CCCCC1)C(=O)N[C@H](CC[C@H](Cc1ccccc1)NC(=O)OCc1cncs1)Cc1ccccc1" , what value of IC50 at 5 min is listed for CYP3A4 (Homo sapiens, UniProt P08684)?
# output 0.1

====

- study.target: CYP3A4 (Homo sapiens, UniProt P08684)
- protocol.details: CYP3A inhibition assay, midazolam 1'-hydroxylase activity in pooled human hepatic microsomal fraction
- Assay type: biochemical
- protocol.conditions: pooled human liver microsomes, pH 7.4, probe midazolam (1'-hydroxylation), 0.25 mg/mL microsomal protein
Hi there, I'd appreciate the recorded IC50 at 5 min for every entry that follows.

# input // query IC50 at 5 min value for entry "O=C(N[C@H](CC[C@H](Cc1ccccc1)NC(=O)[C@H](CCN1CCOCC1)NC(=O)N1CCOCC1)Cc1ccccc1)OCc1cncs1"
# output 0.2 µM

# input Returns the measured IC50 at 5 min for the input compound. Input: "CC(=O)NCC[C@H](NC(=O)N(C)C(C)C)C(=O)N[C@@H](CC[C@@H](Cc1ccccc1)NC(=O)OCc1cncs1)Cc1ccccc1"
# output < 0.1 µM

# input Reported IC50 at 5 min for "CC(C)CN(C)C(=O)N[C@@H](CCN1CCOCC1)C(=O)N[C@H](CC[C@H](Cc1ccccc1)NC(=O)OCc1cncs1)Cc1ccccc1" : what is it?
# output 0.13 µM

# input Looking for the measured IC50 at 5 min of "CC(C)[C@H](NC(=O)N1CCN(C)CC1)C(=O)N[C@H](CC[C@H](Cc1ccccc1)NC(=O)OCc1cncs1)Cc1ccccc1" , can you help?
# output 0.19 µM

# input Entry under review: "CC(C)[C@H](NC(=O)N1CCOCC1)C(=O)N[C@H](CC[C@H](Cc1ccccc1)NC(=O)OCc1cncs1)Cc1ccccc1" . Reported IC50 at 5 min?
# output 0.11 µM

# input Would you kindly share the measured IC50 at 5 min for "CC(C)N(C)C(=O)N[C@H](CCN1CCOCC1)C(=O)N[C@H](CC[C@H](Cc1ccccc1)NC(=O)OCc1cncs1)Cc1ccccc1" ?
# output < 0.1 µM

====

- study.target: CYP3A4 (Homo sapiens, UniProt P08684)
- protocol.details: CYP3A inhibition assay, midazolam 1'-hydroxylase activity in pooled human hepatic microsomal fraction
- Format: biochemical
- protocol.conditions: pooled human liver microsomes, pH 7.4, probe midazolam (1'-hydroxylation), 0.25 mg/mL microsomal protein
reported.endpoint: IC50 at 5 min (µM)
Provide only the numeric value, understood in µM.

# input Report IC50 at 5 min for "CN(Cc1ccccn1)C(=O)N[C@@H](CCN1CCOCC1)C(=O)N[C@H](CC[C@H](Cc1ccccc1)NC(=O)OCc1cncs1)Cc1ccccc1" please.
# output 0.19

# input Would you mind telling me what IC50 at 5 min value was observed for "CC(C)c1nc(CN(C)C(=O)N[C@H](C(=O)N[C@H](CC[C@H](Cc2ccccc2)NC(=O)OC(C)(C)C)Cc2ccccc2)C(C)C)cs1" ?
# output 0.72

# input Would you mind telling me what IC50 at 5 min value was observed for "O=C(N[C@H](CC[C@H](Cc1ccccc1)NC(=O)[C@@H]1C[C@@H](O)CN1C(=O)OCc1ccccc1)Cc1ccccc1)OCc1cncs1" ?
# output 0.18

# input For the molecule "CC(C)c1nc(CN(C)C(=O)N[C@H](C(=O)N[C@H](CC[C@H](Cc2ccccc2)NC(=O)CCc2cccs2)Cc2ccccc2)C(C)C)cs1" , what IC50 at 5 min is on record?
# output 0.7

# input # lookup: IC50 at 5 min of "CN(C(=O)N[C@@H](CCN1CCOCC1)C(=O)N[C@H](CC[C@H](Cc1ccccc1)NC(=O)OCc1cncs1)Cc1ccccc1)C(C)(C)C"
# output 0.13

All values here come from patent US20130274254A1.
